Target: Met receptor (EGFR/Met chimeric cells, EMR) (Homo sapiens)
Construct: expressed in transfected cells; the other entry of the earlier key: EGFR (P00533, Epidermal growth factor receptor)
Assay: Met Autophosphorylation Assay
Assay type: biochemical
Conditions: protocol P.130
Label label 1 when Met Kinase % Inhibition (P.130) is strictly below 50%; at or above that, label label 0.

O=C1Nc2ccc(S(=O)(=O)Nc3ccc(C(F)(F)F)cc3)cc2C1=Cc1ccc(Cl)c(Cl)c1    label 0
O=C1Nc2ccc(CCCl)cc2C1=Cc1cc(O)ccc1[N+](=O)[O-]    label 1
CN(C)CCCOc1ccc(C=C2C(=O)Nc3ccc(S(=O)(=O)N4CCOCC4)cc32)cc1    label 1
O=C1Nc2ccc(I)cc2C1=Cc1cc(F)ccc1F    label 0
CCCOc1ccc(C=C2C(=O)Nc3ccc(Br)c(C)c32)cc1    label 1
CC(C)c1ccc(C=C2C(=O)Nc3ccc(S(=O)(=O)Nc4ccc(C(F)(F)F)cc4)cc32)cc1    label 1
COc1ccc(C=C2C(=O)Nc3ccc(S(=O)(=O)N4CCOCC4)cc32)cc1F    label 0
CC(C)c1ccc(C=C2C(=O)Nc3ccc(S(=O)(=O)N4CCOCC4)cc32)cc1    label 1
COC1CCCN1C=C1C(=O)Nc2c(Br)cc(Br)c(C)c21 (stereo not shown)    label 1
O=C1Nc2ccc(CCCl)cc2C1=Cc1cc(O)cc(O)c1    label 1

API: query returns whether the molecule falls strictly under 50% in Met Kinase % Inhibition (P.130). Query: O=C1Nc2c(Br)cc(Br)cc2C1=Cc1cccc(F)c1F
label 0

API: query returns whether the molecule falls strictly under 50% in Met Kinase % Inhibition (P.130). Query: O=C1Nc2ccc(CCCl)cc2C1=Cc1ccc(O)cc1Cl
label 1

----------
Biological target: Met receptor (EGFR/Met chimeric cells, EMR) (Homo sapiens, UniProt P08581)
Construct: expressed in transfected cells; the other entry of the earlier key: EGFR (P00533, Epidermal growth factor receptor)
Sequence (P08581 with tags, fused parts or gaps): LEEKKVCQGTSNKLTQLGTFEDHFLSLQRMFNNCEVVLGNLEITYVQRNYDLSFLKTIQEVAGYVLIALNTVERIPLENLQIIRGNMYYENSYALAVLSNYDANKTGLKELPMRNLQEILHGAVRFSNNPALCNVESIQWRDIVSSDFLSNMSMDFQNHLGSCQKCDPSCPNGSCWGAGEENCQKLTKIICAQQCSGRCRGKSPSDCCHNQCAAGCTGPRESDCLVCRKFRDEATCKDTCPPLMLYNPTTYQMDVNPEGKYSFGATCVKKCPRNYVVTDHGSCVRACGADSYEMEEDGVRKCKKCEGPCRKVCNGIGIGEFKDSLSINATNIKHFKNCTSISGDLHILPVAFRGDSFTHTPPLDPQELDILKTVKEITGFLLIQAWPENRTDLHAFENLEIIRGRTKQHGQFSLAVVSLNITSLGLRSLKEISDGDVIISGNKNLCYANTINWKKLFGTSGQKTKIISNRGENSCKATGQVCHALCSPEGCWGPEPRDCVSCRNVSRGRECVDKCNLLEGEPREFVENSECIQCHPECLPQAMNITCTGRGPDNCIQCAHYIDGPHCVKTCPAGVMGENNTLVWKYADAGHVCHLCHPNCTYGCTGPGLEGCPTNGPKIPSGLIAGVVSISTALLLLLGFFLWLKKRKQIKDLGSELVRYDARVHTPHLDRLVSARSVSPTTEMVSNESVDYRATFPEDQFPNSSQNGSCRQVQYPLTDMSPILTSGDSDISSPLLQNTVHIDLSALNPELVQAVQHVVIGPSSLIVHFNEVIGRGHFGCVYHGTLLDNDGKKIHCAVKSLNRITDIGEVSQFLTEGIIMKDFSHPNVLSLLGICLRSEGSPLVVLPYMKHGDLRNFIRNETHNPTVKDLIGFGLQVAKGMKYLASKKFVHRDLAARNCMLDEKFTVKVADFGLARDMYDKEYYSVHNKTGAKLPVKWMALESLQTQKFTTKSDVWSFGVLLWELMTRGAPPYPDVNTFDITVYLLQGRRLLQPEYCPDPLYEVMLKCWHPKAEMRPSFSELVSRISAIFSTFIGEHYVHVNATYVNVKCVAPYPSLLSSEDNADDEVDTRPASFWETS
Assay: Met Autophosphorylation Assay
Type: biochemical
OUTCOME MEASURE: Met Kinase % Inhibition (P.130) (%)
// note: answer is a bare numeric in %

Take a look at these entries with their results.
Cc1c(Br)cc(Br)c2c1C(=Cc1coc3ccc(C(C)C)cc3c1=O)C(=O)N2 [10731/H05]    32.2
CCc1ccc(C=C2C(=O)Nc3ccc(S(=O)(=O)N4CCOCC4)cc32)cc1 [10736/F09]    40.2
COC(=O)Cc1c(Cl)[nH]c(C=C2C(=O)Nc3c(Br)cc(Br)c(C)c32)c1C(=O)OC [10725/H09]    41.6
COC1CC(C=C2C(=O)Nc3c(Br)cc(Br)c(C)c32)C(OC)O1 (centres unmarked) [10730/H10]    24.9
Cc1c(Br)cc(Br)c2c1C(=Cc1ccc([N+](=O)[O-])o1)C(=O)N2 [10718/H11]    44.9
Cc1c(Br)ccc2c1C(=Cc1ccc([N+](=O)[O-])cc1)C(=O)N2 [10734/C06]    48.3
O=C1Nc2c(Br)cc(Br)cc2C1=Cc1cccc(F)c1 [10736/A07]    55.2
COc1ccc(C=C2C(=O)Nc3c(Br)cc(Br)c(C)c32)c(O)c1 [10723/H09]    62.1

Data request, read-out Met Kinase % Inhibition (P.130), for COc1ccc(C=C2C(=O)Nc3c(Br)cc(Br)c(C)c32)cc1C(C)(C)C [10732/H05]
13.3

Data request, read-out Met Kinase % Inhibition (P.130), for O=C1Nc2ccc(I)cc2C1=Cc1cccc(F)c1O [10734/B08]
56.1

Data request, read-out Met Kinase % Inhibition (P.130), for CCOc1cc(C=C2C(=O)Nc3c(Br)cc(Br)c(C)c32)ccc1O [10720/H09]
49.0

Data request, read-out Met Kinase % Inhibition (P.130), for Cc1c(Br)ccc2c1C(=Cc1ccc(Br)s1)C(=O)N2 [10734/C11]
23.9

Data request, read-out Met Kinase % Inhibition (P.130), for Cc1c(Br)cc(Br)c2c1C(=Cc1ccc(C(F)(F)F)cc1)C(=O)N2 [10722/H11]
66.1

Data request, read-out Met Kinase % Inhibition (P.130), for Cc1c(Br)cc(Br)c2c1C(=Cc1cc(O)c3c(c1O)CCCC3)C(=O)N2 [10726/H07]
80.9

Where do these numbers come from? They come from patent US20020026053A1.
